Target: Histone deacetylase 2 (Homo sapiens, UniProt Q92769)
Sequence (Q92769 whole entry): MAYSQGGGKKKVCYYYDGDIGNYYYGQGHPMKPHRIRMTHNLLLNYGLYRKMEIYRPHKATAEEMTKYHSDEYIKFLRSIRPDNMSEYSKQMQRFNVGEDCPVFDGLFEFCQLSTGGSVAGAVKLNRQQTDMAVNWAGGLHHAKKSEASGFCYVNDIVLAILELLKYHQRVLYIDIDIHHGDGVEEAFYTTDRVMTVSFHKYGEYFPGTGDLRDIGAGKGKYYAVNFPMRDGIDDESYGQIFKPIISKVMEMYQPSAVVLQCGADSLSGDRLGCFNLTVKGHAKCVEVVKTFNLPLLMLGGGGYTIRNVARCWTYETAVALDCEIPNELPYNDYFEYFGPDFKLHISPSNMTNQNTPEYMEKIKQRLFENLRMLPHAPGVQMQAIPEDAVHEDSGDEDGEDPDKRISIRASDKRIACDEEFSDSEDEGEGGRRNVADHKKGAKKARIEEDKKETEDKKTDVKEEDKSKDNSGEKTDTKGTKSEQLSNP
Entries and their Ki values follow.
Answer format: value, then unit.

> print(dat)
                                   molecule    result
1  O=C(CCCCCCC(=O)Nc1cccnc1)NO [PYROXAMIDE]  36000 nM
2  O=C(CCCc1ccccc1)NO [PHENYLBUTYRYLHYDROXAMIC ACID]    430 nM
3  O=C(/C=C/c1ccc(C(=O)N/N=C/c2ccc(O)c(O)c2O)cc1)NO     70 nM

Now look at this entry.
Enter Ki (test system Histone deacetylase 2 (Homo sapiens, UniProt Q92769)) for Cn1c(/C=C/C(=O)NO)ccc1C(=O)Cc1ccccc1
125 nM
